# System: Oryza sativa
# test_description: Crop compatibility post-emergence (greenhouse pot trial)
# Type: in vivo
# settings: application rate 20 g/ha
reported_metric: Oryza sativa (Efficacy in %)

compound: C=CCN(C(=O)C(C)Sc1cc(-n2c(=O)cc(C(F)(F)F)n(C)c2=O)c(F)cc1Cl)C(C)COC (stereo not shown) [I.1-335]
recorded_measurement: 10
--
compound: Cc1c(C(F)(F)F)n(C)c(=O)n(-c2cc(SCC(C)(C)C(=O)OCC3CCSC3)c(Cl)cc2F)c1=O (stereo not shown) [I.54-82]
recorded_measurement: 0
--
compound: Cn1c(C(F)(F)F)cc(=O)n(-c2cc(SCC(C)(C)C(=O)OC3CCOC3)c(Cl)cc2F)c1=O (stereo not shown) [I.48-121]
recorded_measurement: 0
--
compound: CC(Sc1cc(-n2c(=O)cc(C(F)(F)F)n(C)c2=O)c(F)cc1Cl)C(=O)OCC1CCCS1 (stereo not shown) [I.1-81]
recorded_measurement: 0
--
compound: CC(Sc1cc(-n2c(=O)cc(C(F)(F)F)n(C)c2=O)c(F)cc1Cl)C(=O)NCC1COCCO1 (stereo not shown) [I.1-331]
recorded_measurement: 10
--
compound: Cn1c(C(F)(F)F)cc(=O)n(-c2cc(SCC(C)(C)C(=O)OCC3CCOCC3)c(Cl)cc2F)c1=O [I.48-93]
recorded_measurement: 0
--
compound: CC(Sc1cc(-n2c(=O)cc(C(F)(F)F)n(C)c2=O)c(F)cc1Cl)C(=O)OCCCOCc1ccccc1 (stereo not shown) [I.1-30]
recorded_measurement: 0
--
compound: Cn1c(C(F)(F)F)cc(=O)n(-c2cc(SCC(C)(C)C(=O)OC3CCOCC3)c(Cl)cc2F)c1=O [I.48-127]
recorded_measurement: 0
--
compound: Cc1c(C(F)(F)F)n(C)c(=O)n(-c2cc(SC(CC(C)C)C(=O)OCC3CCCO3)c(Cl)cc2F)c1=O (stereo not shown) [I.14-71]
recorded_measurement: 0
--
compound: CCC(Sc1cc(-n2c(=O)c(C)c(C(F)(F)F)n(C)c2=O)c(F)cc1Cl)C(=O)OCC1CCCCO1 (stereo not shown) [I.12-91]
recorded_measurement: 0

###

# System: Glycine max
# test_description: Crop compatibility pre-emergence (greenhouse pot trial)
# Type: in vivo
# settings: application rate 80 g/ha, effect vs untreated controls
# Description: Seeds of mono- and dicotyledonous weeds and crop plants were laid out in plastic or organic plant pots and covered with soil. […] After about 3 weeks, the efficacy of the preparations was scored visually as a percentage by comparison with untreated controls. […] Crop compatibilities were also scored correspondingly. […]
reported_metric: Glycine max (Efficacy in %)

molecule: CC(Sc1cc(-n2c(=O)cc(C(F)(F)F)n(C)c2=O)c(F)cc1Cl)C(=O)OCC1CCCCO1 (stereo not drawn) [I.1-91]
output_unit: %
recorded_measurement: 20

molecule: CSCCNC(=O)C(C)Sc1cc(-n2c(=O)cc(C(F)(F)F)n(C)c2=O)c(F)cc1Cl (stereo not drawn) [I.1-181]
output_unit: %
recorded_measurement: 20

molecule: COCCOCCOC(=O)C(C)Sc1cc(-n2c(=O)cc(C(F)(F)F)n(C)c2=O)c(F)cc1Cl (stereo not drawn) [I.1-23]
output_unit: %
recorded_measurement: 0

###

Consider the following molecules and their measured Echinochloa crus-galli (Efficacy in %) readings.
# Test system: Echinochloa crus-galli
# test_description: Herbicidal action post-emergence (greenhouse pot trial)
# Format: in vivo
# settings: application rate 20 g/ha, scored visually after about 3 weeks vs untreated controls

molecule: Cc1c(C(F)(F)F)n(C)c(=O)n(-c2cc(SCC(C)(C)C(=O)OCC3CCCO3)c(Cl)cc2F)c1=O (stereo not shown) [I.54-71]
Echinochloa crus-galli (Efficacy in %): 80
--
molecule: CC(Sc1cc(-n2c(=O)cc(C(F)(F)F)n(C)c2=O)c(F)cc1Cl)C(=O)OCCCSC(F)(F)F (stereo not shown) [I.1-48]
Echinochloa crus-galli (Efficacy in %): 100
--
molecule: CCC(Sc1cc(-n2c(=O)cc(C(F)(F)F)n(C)c2=O)c(F)cc1Cl)C(=O)OCC1CCCS1 (stereo not shown) [I.2-81]
Echinochloa crus-galli (Efficacy in %): 100
--
molecule: CC(C)=C(Sc1cc(-n2c(=O)cc(C(F)(F)F)n(C)c2=O)c(F)cc1Cl)C(=O)OCC1CCOC1 (stereo not shown) [I.42-72]
Echinochloa crus-galli (Efficacy in %): 90
--
molecule: CC(C)C(Sc1cc(-n2c(=O)cc(C(F)(F)F)n(C)c2=O)c(F)cc1Cl)C(=O)OCC1CCCO1 (stereo not shown) [I.6-71]
Echinochloa crus-galli (Efficacy in %): 90
--
molecule: CC(C)CC(Sc1cc(-n2c(=O)cc(C(F)(F)F)n(C)c2=O)c(F)cc1Cl)C(=O)NCC1CCCO1 (stereo not shown) [I.4-221]
Echinochloa crus-galli (Efficacy in %): 80
--
molecule: CCC(Sc1cc(-n2c(=O)cc(C(F)(F)F)n(C)c2=O)c(F)cc1Cl)C(=O)OCC1CCCOC1 (stereo not shown) [I.2-92]
Echinochloa crus-galli (Efficacy in %): 100
--
molecule: CCC(C)C(Sc1cc(-n2c(=O)cc(C(F)(F)F)n(C)c2=O)c(F)cc1Cl)C(=O)OCC1CCCO1 (stereo not shown) [I.5-71]
Echinochloa crus-galli (Efficacy in %): 90
--
molecule: CC(Sc1cc(-n2c(=O)cc(C(F)(F)F)n(C)c2=O)c(F)cc1Cl)C(=O)OCCOC(F)(F)F (stereo not shown) [I.1-41]
Echinochloa crus-galli (Efficacy in %): 100
--
molecule: CCC(Sc1cc(-n2c(=O)c(C)c(C(F)(F)F)n(C)c2=O)c(F)cc1Cl)C(=O)OCC1CCCCO1 (stereo not shown) [I.12-91]
Echinochloa crus-galli (Efficacy in %): 100
--
molecule: CC(Sc1cc(-n2c(=O)cc(C(F)(F)F)n(C)c2=O)c(F)cc1Cl)C(=O)OCCOCc1ccccc1 (stereo not shown) [I.1-6]
Echinochloa crus-galli (Efficacy in %): 90
--
molecule: CCC(Sc1cc(-n2c(=O)cc(C(F)(F)F)n(C)c2=O)c(F)cc1Cl)C(=O)OCC1CCCCO1 (stereo not shown) [I.2-91]
Echinochloa crus-galli (Efficacy in %): 100
--
molecule: CCC(C)C(Sc1cc(-n2c(=O)cc(C(F)(F)F)n(C)c2=O)c(F)cc1Cl)C(=O)OCC1CCOC1 (stereo not shown) [I.5-72]
Echinochloa crus-galli (Efficacy in %): 90
